# EXPERIMENT DESCRIPTION: gradient 5% acetonitrile 3 min, to 50% in 2 min, to 85% in 15 min, held 3 min, 100 µL/min
# CONDITION NOTES: column: Zorbax Extend-C18 2.1 x 50 mm; eluents: water / acetonitrile, 0.1% formic acid
Kindly return yes (1) if reported RP-LC retention time is no lower than 800 s; return no (0) if it is lower.

>>> label("O=C(Nc1ccc(F)cc1F)c1ccc(Br)cc1F")
"yes (1)"
>>> label("Cc1nc(-c2csc(S(=O)(=O)N3CCC(C(=O)Nc4ccc(F)cc4Cl)CC3)c2)no1")
"yes (1)"
>>> label("COc1ccc2c(c1)C1(CCN(S(=O)(=O)c3cccc(F)c3)C1)C(=O)N2C (stereo not given)")
"yes (1)"
>>> label("Cc1ccc(S(=O)(=O)N2CCC(CN3CCCCCC3)CC2)cc1Cl")
"no (0)"
>>> label("Cc1nc(-c2csc(S(=O)(=O)N3CCC(C(=O)NC(C)Cc4ccco4)CC3)c2)no1 (stereo not given)")
"yes (1)"
>>> label("CCOC(=O)c1c(C)[nH]c(C(=O)N2CCC(CC(=O)N(C)Cc3ccco3)CC2)c1C")
"no (0)"
>>> label("COc1ccc(CCc2nc3nccc(-c4cccnc4)n3n2)cc1OC")
"no (0)"
>>> label("COCCNc1nc(-c2cccc(Cl)c2)nnc1C")
"no (0)"
>>> label("Cc1ccc(NC(=O)Cn2nc(N3CCCC(C)C3)c3ccccc3c2=O)c(C)c1 (stereo not given)")
"yes (1)"
>>> label("CCc1nc(-c2ccc(-c3noc(-c4ccnn4C)n3)cc2)cs1")
"yes (1)"
>>> label("CC(C)NC(=O)c1cc(C(C)C)[nH]n1")
"no (0)"
>>> label("COc1ccccc1N1CCN(S(=O)(=O)c2cc(-c3nc(C(C)C)cs3)cs2)CC1")
"yes (1)"
>>> label("O=C(Cc1cccs1)NCCn1ncc2c(=O)n(Cc3ccccc3F)cnc21")
"no (0)"
>>> label("COCC(=O)N1N=C(c2cccc(NS(C)(=O)=O)c2)CC1c1ccccc1F (stereo not given)")
"no (0)"
>>> label("COc1ccc(C(=O)N2C[C@@H](Oc3cccnc3)C[C@H]2C(N)=O)c(OC)n1")
"no (0)"
>>> label("O=C1CCCCC(C(=O)N2CCCCC2)N1 (stereo not given)")
"no (0)"
>>> label("O=C(Nc1cccc(C(F)(F)F)c1)Nc1cccn2ncnc12")
"yes (1)"
>>> label("c1ccc(CN2CCN(c3c4c(nc5nc(-c6ccccc6)nn35)CCCC4)CC2)cc1")
"no (0)"
>>> label("Cc1cc(=O)n(CC(=O)NCc2ccc(F)cc2F)c(N2CCOCC2)n1")
"no (0)"

* * *

Catalogue of RP-LC retention time values
# EXPERIMENT DESCRIPTION: gradient 5% acetonitrile 3 min, to 50% in 2 min, to 85% in 15 min, held 3 min, 100 µL/min
# CONDITION NOTES: column: Zorbax Extend-C18 2.1 x 50 mm; eluents: water / acetonitrile, 0.1% formic acid
REPORTED METRIC: RP-LC retention time (s)

>>> endpoint_value("CCOC(=O)N1CCN(C(=O)CSc2ccc(-n3cccn3)nn2)CC1")
657
>>> endpoint_value("CCCCN(C)CCNC(=O)c1ccc(N2CCCC2=O)cc1")
581
>>> endpoint_value("CC(C)n1c(=O)sc2cc(S(=O)(=O)N3CCC(C(=O)Nc4ccc(F)c(F)c4)CC3)ccc21")
1020
>>> endpoint_value("CC(C)CCNC(=O)CN1C(=O)C2CCCCN2c2ccc(S(=O)(=O)N3CCCC3)cc21 (stereo not given)")
940
>>> endpoint_value("COC1CN(c2cccc(F)c2)C12CCN(Cc1cccc(F)c1)CC2 (stereo not given)")
761
>>> endpoint_value("CCCn1c(=O)c(N2CCC(NC(=O)NC3CCCCC3)CC2)nc2ccccc21")
953
>>> endpoint_value("CCCn1ccc2sc(C)c(C(=O)NCc3ccc(Cl)cc3)c2c1=O")
985
>>> endpoint_value("CCCC(NC(=O)c1ccc(N(C)C)cc1)C(=O)Nc1nc2ccccc2[nH]1 (stereo not given)")
706
>>> endpoint_value("COc1ccccc1-c1cc2nc(C)cc(NCC3CCCO3)n2n1 (stereo not given)")
592
>>> endpoint_value("O=C(NCc1noc(-c2cccc(Cl)c2)n1)c1coc(-c2ccccc2)n1")
1050

* * *

# EXPERIMENT DESCRIPTION: gradient 5% acetonitrile 3 min, to 50% in 2 min, to 85% in 15 min, held 3 min, 100 µL/min
# CONDITION NOTES: column: Zorbax Extend-C18 2.1 x 50 mm; eluents: water / acetonitrile, 0.1% formic acid
Catalogue of RP-LC retention time values
REPORTED METRIC: RP-LC retention time (s)

>>> endpoint_value("O=c1c2cc3c(cc2nc(SCc2nc(-c4ccc(F)cc4)no2)n1Cc1ccncc1)OCO3")
799
>>> endpoint_value("O=C(NCC1CCCO1)N1CCCn2nc(-c3cccc(Cl)c3)cc2C1 (stereo not given)")
792
>>> endpoint_value("CN1CCCC1c1nc(C2CN(C(=O)c3ccnn3C)C2)no1 (stereo not given)")
543
>>> endpoint_value("Cc1ccc(CNC(=O)c2ccc(-c3nnc4ccc(NC(=O)C5CCC5)cn34)cc2)cc1")
869
>>> endpoint_value("Cc1cc(F)cc2c(=O)c3c([nH]c12)CCN(CC(=O)Nc1cc(F)cc(F)c1)C3")
635

* * *

Catalogue of RP-LC retention time values
# EXPERIMENT DESCRIPTION: gradient 5% acetonitrile 3 min, to 50% in 2 min, to 85% in 15 min, held 3 min, 100 µL/min
# CONDITION NOTES: column: Zorbax Extend-C18 2.1 x 50 mm; eluents: water / acetonitrile, 0.1% formic acid
REPORTED METRIC: RP-LC retention time (s)

>>> endpoint_value("CCOCC(=O)N1CCCN(C2=NS(=O)(=O)C(c3ccccc3)=C2C)CC1")
688
>>> endpoint_value("CN(C)CCOc1ccccc1Cc1ccccc1")
762
>>> endpoint_value("CN(C)c1ccc(-c2nc3cnccn3c2Nc2cccc(Cl)c2)cc1")
879
>>> endpoint_value("CCC(=O)N1CCc2cc(-c3ccc(C(=O)NC(C)C(=O)N4CCCCC4)cc3)ccc21 (stereo unspecified)")
846
>>> endpoint_value("CCN1C(=O)CCc2cc(NS(=O)(=O)c3ccccc3C(=O)OC)ccc21")
790
>>> endpoint_value("CCn1c(CCNC(=O)c2ccc(Cl)cc2)nc2cccnc21")
653
>>> endpoint_value("Cc1ccccc1NC(=O)N1CCC(n2cnc3c(Cl)cccc3c2=O)CC1")
791
>>> endpoint_value("O=C(NCCCN1CCOCC1)c1ccc(-c2cnc(NC3CCCCC3)nc2)cc1")
655
>>> endpoint_value("CCc1nnc(-c2ccc(S(=O)(=O)N3CCCC(C)C3)o2)o1 (stereo unspecified)")
906
>>> endpoint_value("COC(=O)CNC(=O)N1CCC(N2CCN(Cc3ccc(C)cc3)C(=O)C2=O)CC1")
644
>>> endpoint_value("O=C(NC1CC1)c1ccc(OCC2CCN(C(=O)c3ccc(Cl)cc3)CC2)cc1")
850
>>> endpoint_value("Cc1cc(C(=O)N2CCOCC2)c2cc(Cl)ccc2n1")
640
>>> endpoint_value("CCSc1ccccc1C(=O)Nc1cccc2ccc(OC)nc12")
1200
>>> endpoint_value("CCOC(=O)c1c(C)[nH]c(C(=O)N2CCC(C(C)C(=O)N3CCOCC3)CC2)c1C (stereo unspecified)")
681
>>> endpoint_value("Cc1ccc(CN2CCC(CNC(=O)CSc3nc4ccccc4n(C)c3=O)C2)cc1 (stereo unspecified)")
634
>>> endpoint_value("CC(C)Oc1ccc(CN2C[C@@H]3C(=O)N(CCCN4CCCC4=O)C(=O)[C@@H]3C2)cc1")
581
>>> endpoint_value("CC(C)N1C(=O)c2cccnc2Sc2cc(NC(=O)C3CCCO3)ccc21 (stereo unspecified)")
729
>>> endpoint_value("O=C1CC(NC(=O)c2cc(-c3ccc(F)cc3)n[nH]2)CN1 (stereo unspecified)")
604
>>> endpoint_value("CCN(CC)S(=O)(=O)c1ccc(C)c(NC(=O)c2ccccc2C(=O)O)c1")
575
>>> endpoint_value("CCn1cc(S(=O)(=O)Nc2ccc(F)c(F)c2)c2cccnc21")
848
>>> endpoint_value("CNC(=O)c1sc(-c2cccc(C)c2)nc1C")
797

* * *

Catalogue of RP-LC retention time values
# EXPERIMENT DESCRIPTION: gradient 5% acetonitrile 3 min, to 50% in 2 min, to 85% in 15 min, held 3 min, 100 µL/min
# CONDITION NOTES: column: Zorbax Extend-C18 2.1 x 50 mm; eluents: water / acetonitrile, 0.1% formic acid
REPORTED METRIC: RP-LC retention time (s)

>>> endpoint_value("Cc1ccc(NC(=O)N2CCC(CC(=O)N3CCCCC3)CC2)cc1F")
813
>>> endpoint_value("Nc1ccc(-c2ccc3ncc4ccc(=O)n(-c5cccc(C(F)(F)F)c5)c4c3c2)cn1")
653
>>> endpoint_value("Cc1cccc(NC(=O)N2CCC3(CC2)NC(=O)c2cc(F)ccc2N3C)c1")
748
>>> endpoint_value("O=C(NCc1ccccc1F)c1ccc2c(c1)CN(C1CCSCC1)CCO2")
584
>>> endpoint_value("COCC(=O)N(CC(=O)N1CCc2sccc2C1COc1ccc(C)cc1C)CC1CCCO1 (centres undefined)")
929
>>> endpoint_value("COc1ccccc1NC(=O)Cn1nc2c(Oc3cccc(Cl)c3)nccn2c1=O")
900
>>> endpoint_value("O=C(NCC1CCN(C(=O)Oc2ccccc2)CC1)c1ccsc1")
739
>>> endpoint_value("CC1=C(C(=O)N2CCOCC2)C(c2ccccc2Br)C2=C(CC(C)(C)CC2=O)N1 (centres undefined)")
683
>>> endpoint_value("Cc1nc(N2CCN(c3ncccn3)CC2)nc2c1C(=O)CC(c1ccc(F)cc1)C2 (centres undefined)")
1190
>>> endpoint_value("Cc1ccc(C)c(CN2CCCN(c3ncccc3-c3nc(C(C)C)no3)CC2)c1")
790
>>> endpoint_value("CC(C)Cn1ccc2c(cc(C(=O)Nc3ccccc3Br)n2C)c1=O")
881
>>> endpoint_value("COc1cccc(NC(=O)Nc2c(-c3ccsc3)nc3ccccn23)c1")
639
>>> endpoint_value("Cc1cccc(CNC(=O)CN2C(=O)C3CCCCN3c3ccc(S(=O)(=O)N(C)C)cc32)c1 (centres undefined)")
932
>>> endpoint_value("O=C(c1ccc2nc[nH]c2c1)N1CCCN(c2cc(-c3ccc(Cl)cc3)[nH]n2)CC1")
620
>>> endpoint_value("COc1cc(=O)n2c(c1C(=O)Nc1ccc(Br)cc1)CCCC2")
760
>>> endpoint_value("Cc1cc2ccccc2n1CCNC(=O)C(=O)c1c[nH]c2ccccc12")
1010
>>> endpoint_value("COc1ccc(-n2cc(C(=O)O)nn2)cc1OC")
638
>>> endpoint_value("O=C(NCCc1ccccc1)NCCC1CCN(S(=O)(=O)c2ccc(F)cc2)CC1")
887
>>> endpoint_value("CCN(CC)C(=O)c1ccc2c(c1)N(CC(=O)N1CCCCC1)C(=O)C1CCCCN21 (centres undefined)")
795
>>> endpoint_value("CCOc1ccc(NC(=O)N2c3ccccc3CC2c2nc(C3CC3)no2)cc1 (centres undefined)")
982
>>> endpoint_value("O=C(COc1ccc(F)cc1)NCC1CCOCC1")
677
>>> endpoint_value("COc1cccc(-c2nc(CN3CCCC3=O)no2)c1")
697
>>> endpoint_value("CSCc1nnc(NC(=O)c2ccc(S(=O)(=O)N3CC(C)OC(C)C3)cc2)o1 (centres undefined)")
704
>>> endpoint_value("N#Cc1ccc(S(=O)(=O)N2CCC(C(=O)NCC(=O)N3CCCc4ccccc43)CC2)cc1")
832
>>> endpoint_value("O=C(CN1N=C(C(=O)Nc2ccc(F)cc2)CCC1=O)Nc1cc(F)ccc1F")
831
>>> endpoint_value("CCCCOc1ccc(CNC(=O)C2CCN(Cc3cn(CC)c4ccc(OC)cc34)CC2)cc1")
842
>>> endpoint_value("CCS(=O)(=O)N1CCC(Cc2nncn2Cc2ccccc2)C1 (centres undefined)")
643
>>> endpoint_value("Cc1cccc(C)c1Nc1c(-c2cc(Br)ccc2O)nc2ncccn12")
1090
>>> endpoint_value("CCCCn1c(=O)c2ccccc2n(Cc2nc(-c3cccc(Cl)c3)no2)c1=O")
1250
>>> endpoint_value("CC(C)(C)c1cc(NCc2ccccn2)n2ncc(-c3ccccc3)c2n1")
1230
>>> endpoint_value("COc1cccc(/C=N\\NC(=O)C(C)SC(C)C(=O)N/N=C/c2cccc(OC)c2)c1 (centres undefined)")
769
>>> endpoint_value("Cc1nn(-c2ccccc2)c(C)c1/C=N/N1CCN(Cc2ccccc2)CC1")
687
>>> endpoint_value("COC[C@@H]1CN(S(=O)(=O)c2cn(C)cn2)C[C@H]1c1ccccn1")
567
>>> endpoint_value("O=C(CN1CCCCC1c1nc(-c2cccc(F)c2)no1)Nc1ccccc1F (centres undefined)")
1230
>>> endpoint_value("COCc1nc(CCNC(=O)C2CCCO2)no1 (centres undefined)")
593
>>> endpoint_value("CCCCC(=O)Nc1nnc(SCc2nnc(-c3ccccc3)o2)s1")
854
>>> endpoint_value("CN(CCc1noc(COc2ccccc2F)n1)C(=O)Nc1ccc(F)c(Cl)c1")
966
>>> endpoint_value("CCC(CN1CCOCC1)NC(=O)c1c2c(cn(-c3ccccc3)c1=O)C(=O)CC(C)(C)C2 (centres undefined)")
661
>>> endpoint_value("O=C(CC1(O)C(=O)Nc2c(Cl)cc(Cl)cc21)c1cccc([N+](=O)[O-])c1 (centres undefined)")
792
